Tested on: ncRNAs (SEQ ID NO 28-89)
Experiment: ncRNA arrays of melanocytes, keratinocytes, normal skin, melanoma cell lines and patient samples
Parameters: species or system human
Settings: melanoma patient 29 sample compared to normal skin
metric name: ncRNA array expression, patient 29

A selection of reference data follows.
substance: SEQ ID NO 44 (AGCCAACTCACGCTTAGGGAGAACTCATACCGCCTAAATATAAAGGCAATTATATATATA; listed as DNA, chemistry not given here; listed as Homo sapiens)
value reported: −1.809
//
substance: SEQ ID NO 29 (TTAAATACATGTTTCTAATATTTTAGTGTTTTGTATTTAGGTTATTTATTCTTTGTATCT; DNA, backbone and methylation of C not given here; listed as Homo sapiens)
value reported: 4.101
//
substance: SEQ ID NO 54 (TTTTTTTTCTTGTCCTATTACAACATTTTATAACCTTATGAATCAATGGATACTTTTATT; listed as DNA, chemistry not given here; listed as Homo sapiens)
value reported: −0.1851
//
substance: SEQ ID NO 88 (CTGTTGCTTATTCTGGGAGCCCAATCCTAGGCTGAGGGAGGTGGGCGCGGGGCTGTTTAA; listed as DNA, chemistry not given here; listed as Homo sapiens)
value reported: −2.1207

Could I get ncRNA array expression, patient 29 for every one of these entries?
1. SEQ ID NO 61 (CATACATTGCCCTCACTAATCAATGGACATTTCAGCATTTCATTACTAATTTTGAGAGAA; listed as DNA, chemistry not given here; listed as Homo sapiens)
2. SEQ ID NO 46 (CTATTGGAGTGCATATAAATTCTTGATAGCACCAGTTCTCAAATATGAGGTGTTAAAAAC; listed as DNA, chemistry not given here; listed as Homo sapiens)
3. SEQ ID NO 33 (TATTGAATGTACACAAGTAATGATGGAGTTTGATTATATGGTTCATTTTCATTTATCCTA; DNA, backbone and methylation of C not given here; listed as Homo sapiens)
4. SEQ ID NO 83 (TCAGTTTGATGATTGGGCTAGGGAATGAAGCTTTGCCACTTAGGAGATAAACCCCATAAC; listed as DNA, chemistry not given here; listed as Homo sapiens)
5. SEQ ID NO 71 (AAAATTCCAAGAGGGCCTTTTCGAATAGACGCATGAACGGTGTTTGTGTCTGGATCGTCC; listed as DNA, chemistry not given here; listed as Homo sapiens)
6. SEQ ID NO 69 (AGAGTTCGCACTGGGAAGAGTTAAAAAATAAACATTTACAAGGACGAGGAAAGCGGCCCC; listed as DNA, chemistry not given here; listed as Homo sapiens)
7. SEQ ID NO 41 (CTCGTAACACTGGGAAAACTGCATACAATATTTAGAAGGAACACTAATACAGCAGAATCT; listed as DNA, chemistry not given here; listed as Homo sapiens)
8. SEQ ID NO 60 (ACTAACAGCACTGGAGGGTGTAGTGTTTCCTACTTTATGGATGAGTGTACTGTGGGCTTC; listed as DNA, chemistry not given here; listed as Homo sapiens)

3.112
2.278
2.111
−1.1118
2.387
−1.645
−2.614
1.398

Lab note: each substance below needs its ncRNA array expression, patient 29 filled in.
1. SEQ ID NO 53 (ATATATTTAGATAGTACTATGTTTCGTTTTCTTCCGATTTCAGGGATCCTTTTGTCTTAC; listed as DNA, chemistry not given here; listed as Homo sapiens)
2. SEQ ID NO 79 (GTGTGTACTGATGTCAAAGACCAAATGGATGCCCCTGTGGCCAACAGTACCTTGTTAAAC; listed as DNA, chemistry not given here; listed as Homo sapiens)
3. SEQ ID NO 63 (CTCACACGCACCCTTTCACTGTTTCTTAGTAATTTGTTTGTCTACAGACACAGACGGGAA; listed as DNA, chemistry not given here; listed as Homo sapiens)

1: −2.948; 2: 0.6174; 3: −1.862

If you can, please state the reported ncRNA array expression, patient 29 value of SEQ ID NO 82 (GAAGTCAGAAACTAAAGTTCCCTTCTAAGACAAAATCCTGCTTTGGAGAAAAAAAAAAAT; listed as DNA, chemistry not given here; listed as Homo sapiens) .
−3.301

====

System: ncRNAs (SEQ ID NO 28-89)
Assay: ncRNA arrays of melanocytes, keratinocytes, normal skin, melanoma cell lines and patient samples
Design: species or system human
Settings: melanoma patient 10 sample compared to normal skin
Provide the recorded ncRNA array expression, patient 10 for the entries that follow.
One number for each entry.

Below, 2 substances whose answers are already recorded.
substance: SEQ ID NO 81 (CTAGGGGCGGAGTTTCTCGTAAGGGGCAAGGCCAAGGCATCTTGTATTGGGGCTGACAGG; listed as DNA, chemistry not given here; listed as Homo sapiens)
metric name: ncRNA array expression, patient 10
value reported: −3.027

substance: SEQ ID NO 68 (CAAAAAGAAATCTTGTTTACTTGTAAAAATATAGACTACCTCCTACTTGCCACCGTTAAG; listed as DNA, chemistry not given here; listed as Homo sapiens)
metric name: ncRNA array expression, patient 10
value reported: −1.445

Required: ncRNA array expression, patient 10, one value per substance below.
1. SEQ ID NO 59 (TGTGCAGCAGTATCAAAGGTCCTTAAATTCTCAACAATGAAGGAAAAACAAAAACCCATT; listed as DNA, chemistry not given here; listed as Homo sapiens)
2. SEQ ID NO 61 (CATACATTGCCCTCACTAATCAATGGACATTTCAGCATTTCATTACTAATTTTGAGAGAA; listed as DNA, chemistry not given here; listed as Homo sapiens)
3. SEQ ID NO 80 (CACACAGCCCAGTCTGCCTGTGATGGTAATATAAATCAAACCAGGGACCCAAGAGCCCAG; listed as DNA, chemistry not given here; listed as Homo sapiens)

−0.9688
3.678
−1.815

====

Test system: ncRNAs (SEQ ID NO 28-89)
Experiment: ncRNA arrays of melanocytes, keratinocytes, normal skin, melanoma cell lines and patient samples
Parameters: species or system human
Conditions: melanoma patient 5 sample compared to normal skin
# if measured ncRNA array expression, patient 5 < -0.06: 1 (yes)  # else: 0 (no)

Study these solved cases before continuing.
substance: SEQ ID NO 55 (CCTCTCCCCTTCTTGCAAAAAATATTCTATATTCAAGTTTAGGAGAAAACAGAATACTTG; listed as DNA, chemistry not given here; listed as Homo sapiens)
qualitative label: 1 (yes)
--
substance: SEQ ID NO 66 (TCCTTTTTATCTTGCACTCAGATGGTATTTTTAGAGATGTTTCTTCAATCAAAACAAGAT; listed as DNA, chemistry not given here; listed as Homo sapiens)
qualitative label: 0 (no)

Criterion: ncRNA array expression, patient 5 strictly below -0.06. Is it met by SEQ ID NO 73 (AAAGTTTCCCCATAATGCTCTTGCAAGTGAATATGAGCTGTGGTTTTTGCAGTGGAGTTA; listed as DNA, chemistry not given here; listed as Homo sapiens) ?
1 (yes)

Is -0.06 strictly greater than the substance's reported ncRNA array expression, patient 5? substance: SEQ ID NO 77 (AAGTTTCCACGGCAGGTTCTCGTAGCACCTTTGGTCAAGAACTGAAGGGGCCTTTAGATG; listed as DNA, chemistry not given here; listed as Homo sapiens)
1 (yes)

Is -0.06 strictly greater than the substance's reported ncRNA array expression, patient 5? substance: SEQ ID NO 64 (TTGCCTAGGAACAAAGAAGGCTTGTGAGGAGATCAAGGAACTTACATGAAATTGTAGGAA; listed as DNA, chemistry not given here; listed as Homo sapiens)
0 (no)

====

System: ncRNAs (SEQ ID NO 28-89)
Assay: ncRNA arrays of melanocytes, keratinocytes, normal skin, melanoma cell lines and patient samples
Design: species or system human
Conditions: melanoma patient 29 sample compared to normal skin
Criterion: ncRNA array expression, patient 29 meeting or surpassing -1. Met: satisfied. Not met: not satisfied.

Example entries begin here.
substance: SEQ ID NO 87 (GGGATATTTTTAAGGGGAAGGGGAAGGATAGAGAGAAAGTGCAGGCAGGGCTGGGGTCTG; listed as DNA, chemistry not given here; listed as Homo sapiens)
qualitative label: not satisfied
//
substance: SEQ ID NO 45 (ATTTAGAGAACATTTAAATCTGTAAGGAAGAAAATAATAACGACTCACAATTACATCATT; listed as DNA, chemistry not given here; listed as Homo sapiens)
qualitative label: not satisfied
//
substance: SEQ ID NO 52 (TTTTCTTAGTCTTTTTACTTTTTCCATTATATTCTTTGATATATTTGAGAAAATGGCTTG; listed as DNA, chemistry not given here; listed as Homo sapiens)
qualitative label: satisfied
//
substance: SEQ ID NO 85 (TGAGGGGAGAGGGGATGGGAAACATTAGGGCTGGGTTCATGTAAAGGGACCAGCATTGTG; listed as DNA, chemistry not given here; listed as Homo sapiens)
qualitative label: not satisfied

Identify whether the reported ncRNA array expression, patient 29 of the following substance is -1 or greater: SEQ ID NO 86 (AAAATTATTTTATCTTAAGTTTCCATTTAGTTGATTAAAAATAGGGTTATGAATGTTAAA; listed as DNA, chemistry not given here; listed as Homo sapiens)
satisfied
